# Tested on: HLA-A*24
# protocolSummary: MHC binding assay: UV-ligand exchange with beta2m ELISA (peptide exchange yield)
# Parameters: species or system human
# settings: Table 11, binding to HLA-A*24, UV-ligand exchange
measuredMetric: Peptide exchange (MHC class I binding score, peptide exchange yield)

Consider the reported Peptide exchange (MHC class I binding score, peptide exchange yield) for these substances:
29 (IYLLLPPVI; listed as Homo sapiens) [compound 29] = ++++ (>75% = ++++)
55 (AVLRHLETF; listed as Homo sapiens) [compound 55] = ++ (>20% = ++)
204 (WQNVTPLTF; listed as Homo sapiens) [compound 204] = ++ (>20% = ++)
285 (YFLPGPHYF; listed as Homo sapiens) [compound 285] = ++++ (>75% = ++++)
215 (KASKITFHW; listed as Homo sapiens) [compound 215] = ++ (>20% = ++)
60 (RYSPVKDAW; listed as Homo sapiens) [compound 60] = ++++ (>75% = ++++)
73 (YFCSTKGQLF; listed as Homo sapiens) [compound 73] = ++++ (>75% = ++++)
320 (EVYQKIILKF; listed as Homo sapiens) [compound 320] = ++++ (>75% = ++++)

Attention now turns to another entry.
Suppose we examine the substance 47 (SYLWTDNLQEF; listed as Homo sapiens) [compound 47] ; what Peptide exchange (MHC class I binding score, peptide exchange yield) value has been reported?
++++ (>75% = ++++)

meta.source: patent US12060400B2
